# System: β-galactosidase in CMV-LacZ C2C12 myotubes
# methodNotes: CMV-LacZ secondary screen in C2C12 myotubes (β-Gal stabilizing assay)
# Format: cell-based, mouse
# conditionDescription: 5 uM; C2C12 CMV-LacZ myotubes; fold relative to DMSO
Property: CMV-LACZ in Myotubes, signal relative to DMSO; scope: individual molecules
Give the value as a plain number.

Query: Request the reported CMV-LACZ in Myotubes, signal relative to DMSO associated with CCn1c(=O)c2cc(C(=O)N(C)c3cc(C)ccc3OC)sc2c2ccccc21
Response: 1.4794

Query: What would you report for CC(O)CNc1nc2c(c(=O)n(Cc3ccc(Br)cc3)c(=O)n2C)n1C (stereo not drawn) ?
Response: 0.9525

Query: What would you report for O=C(NCc1ccccc1)c1csc(-c2cccnc2)n1 ?
Response: 0.9632

Query: What would you report for CCCOc1nc(SCCC)nc2c1cnn2-c1ccccc1 ?
Response: 0.8274

Query: What would you report for COc1ccc(CN2CCNC(=O)C2CC(=O)NCCc2c[nH]c3ccccc23)c(OC)c1 (stereo not drawn) ?
Response: 1.1042

---
Query: Request the reported CMV-LACZ in Myotubes, signal relative to DMSO associated with COc1cc(NC(=O)CN(C)S(=O)(=O)c2ccc3c(c2)CC(C)N3C(C)=O)cc(OC)c1OC (stereo not drawn)
Response: 0.8137

* * *

# Tested on: β-galactosidase in CMV-LacZ C2C12 myoblasts
# methodNotes: CMV-LacZ secondary screen in C2C12 myoblasts (β-Gal stabilizing assay)
# Assay type: cell-based, mouse
# conditionDescription: 1 uM; CMV-LacZ C2C12 myoblasts
// label = MET if CMV-LACZ in Myoblasts (β-galactosidase activity relative to DMSO) is not less than 1, otherwise NOT MET

Consider the following illustrative entries.
Query: Check if CMV-LACZ in Myoblasts (β-galactosidase activity relative to DMSO) >= 1 (inclusive). Item: CCOc1ccccc1NC(=O)c1cccc2c1C(=O)N(C1CCCCC1)C2 [MLS000912726-01]
Response: NOT MET

Query: What would you report for COC(=O)c1cc(S(=O)(=O)NCC2CCN(Cc3ccc(Cl)cc3)CC2)cn1C [MLS001095033-01] ?
Response: NOT MET

Query: What would you report for COc1ccc(N=Nc2ccc(N)nc2N)cc1 [MLS000736846-01] ?
Response: MET

Query: What would you report for CC1CCCCC1NC(=O)CSc1nnc(COc2ccc(Cl)cc2)o1 (stereo not drawn) [MLS000948055-01] ?
Response: NOT MET

Query: What would you report for Cc1ccc(NS(=O)(=O)c2ccc(-c3ccc(=O)[nH]n3)o2)c(C)c1 [MLS001116535-01] ?
Response: MET

Query: What would you report for Cc1cccc2c(N=Nc3ccc(S(=O)(=O)Nc4ccc(Cl)cc4)cc3[N+](=O)[O-])c(O)[nH]c12 [MLS000393762-01] ?
Response: NOT MET

---
Query: Check if CMV-LACZ in Myoblasts (β-galactosidase activity relative to DMSO) >= 1 (inclusive). Item: Cc1ccccc1NC(=O)c1ccc2c(O)c(S(=O)(=O)c3ccccc3)c(=O)[nH]c2c1 [MLS001122698-01]
Response: MET

Query: What would you report for Cc1ccc(NS(=O)(=O)c2cccc(C(=O)O)c2)cc1S(=O)(=O)N1CCOCC1 [MLS000393966-01] ?
Response: MET

Query: What would you report for CC(=O)Nc1ccc(NC(=O)c2cc(=O)c3cc(C)cc(C)c3o2)cc1 [MLS001200396-01] ?
Response: NOT MET

Query: What would you report for CCOc1ccc2nc(Cl)sc2c1 [MLS000678673-01] ?
Response: MET

* * *

# Test system: β-galactosidase in CMV-LacZ C2C12 myotubes
# methodNotes: CMV-LacZ secondary screen in C2C12 myotubes (β-Gal stabilizing assay)
# Assay type: cell-based, mouse
# conditionDescription: 10 uM; CMV-LacZ C2C12 myotubes; 96-well format
CMV-LACZ in Myotubes (β-galactosidase activity relative to DMSO) strictly less than 0.9 = Met. Otherwise Not met.

Query: Here's an entry: COc1cc(/C=C/c2nc(-c3ccccc3O)n[nH]2)cc(OC)c1OC . Is its CMV-LACZ in Myotubes (β-galactosidase activity relative to DMSO) below 0.9?
Response: Not met

Query: What would you report for Cc1ccc(C2Nc3cccc4cccc(c34)N2)s1 ?
Response: Not met

Query: What would you report for CS(=O)(=O)Cc1cccc(C(=O)NN(c2ccccc2)c2ccccc2)c1 ?
Response: Met

Query: What would you report for CS(=O)(=O)N(Cc1ccc(C(=O)NC2CCCC2)cc1)c1ccccc1 ?
Response: Not met

Query: What would you report for COCCn1c(=N)c(S(=O)(=O)c2ccc(Br)cc2)cc2c(=O)n3ccccc3nc21 ?
Response: Not met

Query: What would you report for Cc1ccc(NC(=O)CC2COc3ccccc3O2)cc1 (centres unmarked) ?
Response: Not met

---
Query: Here's an entry: CN(C)S(=O)(=O)c1ccc(C(=O)Nc2nc3ccccc3[nH]2)cc1 . Is its CMV-LACZ in Myotubes (β-galactosidase activity relative to DMSO) below 0.9?
Response: Met

* * *

Property: CMV-LACZ in Myoblasts (β-galactosidase activity relative to DMSO); scope: individual compounds
# System: β-galactosidase in CMV-LacZ C2C12 myoblasts
# methodNotes: CMV-LacZ secondary screen in C2C12 myoblasts (β-Gal stabilizing assay)
# Type: cell-based, mouse
# conditionDescription: 10 uM; CMV-LacZ C2C12 myoblasts

Query: Request the reported CMV-LACZ in Myoblasts (β-galactosidase activity relative to DMSO) associated with O=C(Cn1nc(-c2ccc(Cl)cc2)ccc1=O)N1CCC2(CC1)OCCO2 [MLS000689492-01]
Response: 0.8653

Query: What would you report for C#CC1(O)CCC2C3CCC4=C/C(=N/OCC(=O)NCC(=O)NC(C(=O)O)C(C)C)CC[C@]4(C)C3CC[C@@]21C (stereo partly drawn) [MLS001163859-01] ?
Response: 1.1812

Query: What would you report for CCN(C(=O)c1ccc(S(=O)(=O)N(C)C)cc1)C(C)C(=O)Nc1ccc(C)cc1 (stereo not drawn) [MLS001170856-01] ?
Response: 1.0004

Query: What would you report for Cc1noc(C)c1COc1ccc(C(=O)NCCc2ccccn2)cc1 [MLS001061374-01] ?
Response: 0.9793

Query: What would you report for O=C(CNC(=O)c1cccc(F)c1)N/N=C/c1cc(Br)ccc1OCc1ccccc1 [MLS000591667-01] ?
Response: 1.1592

Query: What would you report for CNC(=O)CSc1nnc(-c2ccc3c(c2)OCO3)n1C [MLS000717689-01] ?
Response: 1.0936

---
Query: Request the reported CMV-LACZ in Myoblasts (β-galactosidase activity relative to DMSO) associated with Fc1ccc(-c2ccnc3nc(N4CCN(c5ccccc5)CC4)nn23)cc1 [MLS000546316-01]
Response: 1.2440

Query: What would you report for CCCN(C(=O)c1ccc(S(=O)(=O)N2CCCC2)cc1)C1CCS(=O)(=O)C1 (stereo not drawn) [MLS002161853-01] ?
Response: 0.9436

Query: What would you report for NC(=O)c1sc2nc3c(cc2c1N)CCC3 [MLS000707378-01] ?
Response: 0.8072

Query: What would you report for c1ccc(-c2cn3c4c(sc3n2)CCCC4)cc1 [MLS002636056-01] ?
Response: 1.2571

* * *

Property: Burkin Assay in Myoblasts, value relative to DMSO; scope: individual molecules
# Test system: α7 integrin (LacZ reporter in α7βgal+/− myoblasts)
# methodNotes: Myoblast α7+/LacZ integrin FDG assay (Burkin assay in myoblasts, 96-well)
# Format: cell-based, mouse
# conditionDescription: 0.5 uM; α7+/LacZ myoblasts, 96-well
Give the value as a plain number.

Please review the entries below; each comes with its answer.
Query: Request the reported Burkin Assay in Myoblasts, value relative to DMSO associated with O=c1[nH]c(C2CCCN(S(=O)(=O)c3ccccc3)C2)nc2c1nnn2Cc1cccc(Cl)c1 (stereo not drawn) [MLS001217286-01]
Response: 0.7428

Query: What would you report for O=C(Nc1ccc(N2CCN(C(=O)c3ccccc3F)CC2)cc1)c1cncc(Br)c1 [MLS001060533-01] ?
Response: 0.9049

Query: What would you report for CN(C)S(=O)(=O)c1ccc(C(=O)Nc2nc3ccccc3[nH]2)cc1 [MLS000774940-01] ?
Response: 0.9309

Query: What would you report for Cc1ccccc1C(=O)Nc1nnc(SC(C)C)s1 [MLS000683174-01] ?
Response: 1.02

Query: What would you report for O=C(CSc1nnc(C2CC2)n1C1CC1)c1cccs1 [MLS002161757-01] ?
Response: 0.9614

Query: What would you report for CCCCS(=O)(=O)N1CCCC(C(=O)NCCc2ccccc2)C1 (stereo not drawn) [MLS001163121-01] ?
Response: 1.049

Query: What would you report for COCc1c(C(=O)OCc2nc3ccsc3c(=O)[nH]2)oc2ccccc12 [MLS002163386-01] ?
Response: 1.0508

Query: What would you report for Cc1ccc(N(CCC(=O)O)S(=O)(=O)c2cccc(C(F)(F)F)c2)cc1 [MLS000775793-01] ?
Response: 1.103

---
Query: Request the reported Burkin Assay in Myoblasts, value relative to DMSO associated with COc1ccc(N2CCCC2)c(NC(=O)c2ccc([N+](=O)[O-])o2)c1 [MLS001221619-01]
Response: 0.6855

Hey, just so you know, these numbers are from patent US9980943B2.
